# assayOverview: Solubility of neutral fluorinated surfactants in water at 22° C. (capillary GC of saturated solutions)
# Type: physicochemical
# statedConditions: pure deionized water
Task for the reader: assign each of the following compounds its reported % Soluble in water at 22 Deg C..
Please respond with the number in % and leave the unit unwritten.

Please report the recorded % Soluble in water at 22 Deg C. for `O=S(=O)(N(CCOCCO)CCOCCO)C(F)(F)C(F)(F)C(F)(F)C(F)(F)F` . 0.101

Please report the recorded % Soluble in water at 22 Deg C. for CN(CCO)S(=O)(=O)C(F)(F)C(F)(F)C(F)(F)C(F)(F)F [C, reference compound] . 0.118

Please report the recorded % Soluble in water at 22 Deg C. for `CN(CCOCCO)S(=O)(=O)C(F)(F)C(F)(F)C(F)(F)C(F)(F)F` . 0.232

Please report the recorded % Soluble in water at 22 Deg C. for O=S(=O)(N(CCO)CCO)C(F)(F)C(F)(F)C(F)(F)C(F)(F)F [B, reference compound] . 0.0592

----------
metricName: melting point (°C)
Please respond with the number in °C and leave the unit unwritten.

Please report the recorded melting point for `CN(CCOCCO)S(=O)(=O)C(F)(F)C(F)(F)C(F)(F)C(F)(F)F` . 80.5

Please report the recorded melting point for CC(O)CNS(=O)(=O)C(F)(F)C(F)(F)C(F)(F)C(F)(F)F (stereo not shown) . 80.33

Please report the recorded melting point for `O=S(=O)(N(CCO)CCOCCO)C(F)(F)C(F)(F)C(F)(F)C(F)(F)F` . 45.1

Please report the recorded melting point for `O=S(=O)(NCCOCCO)C(F)(F)C(F)(F)C(F)(F)C(F)(F)F` . 35.7
